The reported measurements were obtained from patent US7732468B2.

- System: human colon carcinoma cell line HCT116
- protocol: Caspase cascade activation in HCT116 cells
- Format: cell-based
- particulars: HCT-116, 48 h incubation, read-out: caspase potency EC50 HCT116
hey, just use Met if measured EC50 is less than 600 nM, otherwise Not met

Below are worked cases with known answers.
[
  {
    "compound": "COc1cc(-c2nnc3sc(-c4ccc(N5CCOCC5)cc4)nn23)cc(OC)c1OC",
    "subject_of_test": "human colon carcinoma cell line HCT116",
    "group": "Not met"
  },
  {
    "compound": "COc1cccc(-c2nn3c(-c4cc(OC)c(OC)c(OC)c4)nnc3s2)c1",
    "subject_of_test": "human colon carcinoma cell line HCT116",
    "group": "Not met"
  },
  {
    "compound": "COc1ccccc1-c1nnc2sc(-c3ccc(Br)cc3)nn12",
    "subject_of_test": "human colon carcinoma cell line HCT116",
    "group": "Met"
  },
  {
    "compound": "COc1cc(-c2nnc3sc(-c4ccc(C)c(N)c4)nn23)cc(OC)c1OC",
    "subject_of_test": "human colon carcinoma cell line HCT116",
    "group": "Not met"
  },
  {
    "compound": "CN(C)c1ccc(-c2nn3c(-c4ccccc4Cl)nnc3s2)cc1 [Entry E1]",
    "subject_of_test": "human colon carcinoma cell line HCT116",
    "group": "Not met"
  }
]

As a next step, examine the compound that follows.
# check: EC50 < 600 nM for COc1ccccc1-c1nnc2sc(-c3cccnc3)nn12 Not met

----------
- Test system: human B cell lymphoblastoid cell line Ramos
- protocol: Caspase cascade activation in Ramos cells
- Format: cell-based
- particulars: 48 h incubation, read-out: caspase potency EC50 RAMOS
// pEC50 lookup, one value per entry
Bear in mind: pEC50 is minus log10 of a mol/L concentration; give just that figure.

[
  {
    "compound": "CCN(CC)c1ccc(-c2nn3c(-c4cccc(C)c4)nnc3s2)cc1",
    "subject_of_test": "human B cell lymphoblastoid cell line Ramos",
    "pEC50": 5.65
  },
  {
    "compound": "CCOc1ccc(-c2nn3c(-c4ccccc4C)nnc3s2)cc1",
    "subject_of_test": "human B cell lymphoblastoid cell line Ramos",
    "pEC50": 5.24
  }
]

So what does the record say about pEC50 for COc1cccc(-c2nnc3sc(-c4ccc(N(C)C)cc4)nn23)c1 [Entry D1] ? 5.90

Again, but for COc1ccccc1-c1nnc2sc(-c3ccc(Br)cc3)nn12 6.60

Again, but for COc1ccc(-c2nn3c(-c4ccccc4OC)nnc3s2)cc1OC 6.46

----------
- Tested on: human lymphoma cell line Raji
- protocol: Caspase cascade activation in Raji cells
- Type: cell-based
- particulars: RAJ1 cells, 48 h incubation, read-out: caspase potency EC50 RAJ1
- Protocol: Human breast cancer cell lines T-47D, human hepatocellular carcinoma cell line SNU398, human colon carcinoma cell line HCT116, human cancer cell line H11299, human Burkitt's lymphoma cell line Namalwa, human lymphoma cell line Raji, and human B cell lymphoblastoid cell line Ramos were grown according to media component mixtures designated by American Type Culture Collection+10% FCS (Invitrogen Corporation), in a 5% CO2-95% humidity incubator at 37° C. […]
// pEC50 lookup, one value per entry
Bear in mind: pEC50 is minus log10 of a mol/L concentration; give just that figure.

[
  {
    "molecule": "CCN(CC)c1ccc(-c2nn3c(-c4cccc(C)c4)nnc3s2)cc1",
    "pEC50": 5.53
  },
  {
    "molecule": "COc1cc(-c2nnc3sc(-c4ccc(C)c(C)c4)nn23)cc(OC)c1OC",
    "pEC50": 6.31
  },
  {
    "molecule": "COc1ccc(-c2nn3c(-c4n[nH]c5c4CCC5)nnc3s2)cc1OC",
    "pEC50": 5.57
  },
  {
    "molecule": "CCN(CC)c1ccc(-c2nn3c(-c4ccccc4C)nnc3s2)cc1",
    "pEC50": 5.99
  },
  {
    "molecule": "COc1cccc(-c2nnc3sc(-c4ccc(N(C)C)cc4)nn23)c1 [Entry D1]",
    "pEC50": 5.85
  }
]

So what does the record say about pEC50 for CCc1nn(C)c(-c2nnc3sc(-c4ccc(OC)cc4)nn23)c1Cl ? 5.27

Again, but for COc1cc(-c2nnc3sc(-c4ccco4)nn23)cc(OC)c1OC 6.60

Again, but for COc1ccc(-c2nn3c(-c4ccccc4OC)nnc3s2)cc1OC 6.28

Again, but for COc1cc(-c2nnc3sc(-c4ccc(C)cc4)nn23)cc(OC)c1OC 6.17

Again, but for CCN(CC)c1ccc(-c2nn3c(-c4n[nH]c5c4CCC5)nnc3s2)cc1 6.21

Again, but for CN(C)c1ccc(-c2nn3c(-c4ccccc4Cl)nnc3s2)cc1 [Entry E1] 6.24

Again, but for CN(C)c1ccc(-c2nn3c(-c4ccncc4)nnc3s2)cc1 5.31
